biological target: GSK-3β (Homo sapiens); construct: purchased Sigma; assay: GSK-3β inhibition (radiometric, GS 1 peptide); format: biochemical; conditions: Tables 4a, 4b; read-out: GSK-3β IC50
Sequence (P49841 whole entry, species assumed): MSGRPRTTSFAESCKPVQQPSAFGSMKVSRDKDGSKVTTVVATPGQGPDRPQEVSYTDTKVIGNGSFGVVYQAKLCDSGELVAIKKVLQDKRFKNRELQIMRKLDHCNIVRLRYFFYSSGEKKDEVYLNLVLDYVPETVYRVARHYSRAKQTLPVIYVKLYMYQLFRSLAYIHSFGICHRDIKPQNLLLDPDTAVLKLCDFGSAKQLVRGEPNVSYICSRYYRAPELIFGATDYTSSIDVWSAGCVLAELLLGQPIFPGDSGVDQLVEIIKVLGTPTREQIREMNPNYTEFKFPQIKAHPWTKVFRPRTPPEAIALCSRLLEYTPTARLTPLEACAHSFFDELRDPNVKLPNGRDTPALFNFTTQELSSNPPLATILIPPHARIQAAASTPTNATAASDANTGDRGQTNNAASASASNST
Measure: IC50 (nM)

Consider the compound shown here: COc1ccc(CN2C(=O)C=CC2=O)cc1 [Compound 7-D, N-(p-methoxybenzyl)maleimide] What is its recorded IC50?
2500

Need IC50, item O=C1C=CC(=O)N1CCc1ccccc1 [Compound 4-D, N-phenethylmaleimide]
2000
